# TARGET_OF_ASSAY: UniProtKB P08684
# Sequence (P08684 whole entry): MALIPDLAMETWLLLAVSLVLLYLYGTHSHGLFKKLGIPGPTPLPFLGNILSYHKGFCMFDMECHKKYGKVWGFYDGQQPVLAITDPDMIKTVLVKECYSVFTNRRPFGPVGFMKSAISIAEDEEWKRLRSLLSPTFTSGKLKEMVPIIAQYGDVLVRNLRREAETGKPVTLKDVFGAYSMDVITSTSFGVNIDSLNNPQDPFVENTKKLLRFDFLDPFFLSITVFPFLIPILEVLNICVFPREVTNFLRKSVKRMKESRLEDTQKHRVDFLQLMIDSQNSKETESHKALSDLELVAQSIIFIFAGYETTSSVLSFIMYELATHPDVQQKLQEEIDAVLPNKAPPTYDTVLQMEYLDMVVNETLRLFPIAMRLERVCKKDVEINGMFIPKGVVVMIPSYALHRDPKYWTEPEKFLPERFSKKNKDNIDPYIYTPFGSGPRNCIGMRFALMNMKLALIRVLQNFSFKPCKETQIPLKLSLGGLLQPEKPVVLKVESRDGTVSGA

STRUCTURE | AC50
Clc1ccc(Cl)c(Nc2ccnc(SCc3ccccc3)n2)c1 | 3.98 µM (inconclusive)
O=C(Oc1ccc2c(c1)CN(Cc1ccccc1)CO2)c1ccccc1 | 3.98 µM (inconclusive)
CCOC(=O)c1cnn(-c2ccc(C(C)C)cc2)c1NC(=O)C1CCC1 | 39.8 µM (inconclusive)
O=C(Nc1cccc(F)c1)N1CC[C@@]2(CCCNC2)C1 | 7.94 µM (inconclusive)
O=c1c(CCc2ccccc2)nc2cnc(Oc3ccccc3)nc2n1C[C@H]1CCCO1 | 0.0794 µM (inconclusive)
O=C(c1cnccn1)N1CCC[C@@]2(CCN(C(c3ccccc3)c3ccccc3)C2)C1 | 2.51 µM (inconclusive)
CN(C)Cc1ccccc1-c1cc(N(C)Cc2ccco2)ncn1 | 25.1 µM (inconclusive)
Cc1n[nH]c(Nc2ccccc2)c1[N+](=O)[O-] | 25.1 µM (inconclusive)
c1cncc(CNc2cc(-c3ccoc3)ncn2)c1 | 3.98 µM (inconclusive)
COc1ccccc1/C=N/N=C(/Nc1ccc(C)cc1)c1nc2ccccc2s1 | 17.8 µM (inconclusive)
CN(c1ccccc1)c1ccc(/C=c2\s/c(=C(/C#N)C(=O)C(C)(C)C)n(Cc3ccco3)c2=O)cc1 | 6.31 µM (inconclusive)

---

Each item that follows carries a reported IC50.
# Tested on: Vero
# ASSAY_NAME: cells
# Format: functional, cell-based
# PROTOCOL_CONDITIONS: Chlorocebus sabaeus
The source made the active and inactive calls.
ASSAY_ENDPOINT: IC50

COMPOUND | ASSAY_ENDPOINT | RESULT
CC(C)(C)OC(=O)[C@H](Cc1ccccc1)NC(=O)c1[nH]cnc1C(=O)N1CCN(C(=O)OC(C)(C)C)CC1 | IC50 | 18.3 µM (active)
O=C(Nc1ccc(C#Cc2ccccc2)cc1)C1CC1 | IC50 | > 12.5 µM (active)
Cc1ccc(S(=O)(=O)n2cccc2/C=C/[N+](=O)[O-])cc1 | IC50 | > 25 µM (active)
OC1(c2cccs2)C[N+](c2ccc(Cl)cc2)=C2CCCCN21 (centres undefined) | IC50 | 8.4 µM (active)

---

# ASSAY_NAME: Luminescence Cell-Based Dose Retest to Confirm Inhibitors of Cancer Stem Cells. [Related pubchem assays (depositor defined):AID2717, AID2721]
# Format: functional
# PROTOCOL_CONDITIONS: Homo sapiens
Calls of active or inactive are those of the source.
Reported AC50 values for the following molecules.

MOLECULE | AC50
Cc1ccc(SC[C@H](C)CN2CC[C@H](C(C)(C)C)CCC2=O)cc1 | 1560 nM (active)
CN(CC(O)CON=C1c2ccccc2-c2ccccc21)S(=O)(=O)c1ccc(Br)cc1 (centres undefined) | 4110 nM (active)
CCSc1nnc(-c2sc3nnc(-c4ccccc4)c(-c4ccccc4)c3c2N)o1 | 286 nM (active)
CN1CCN(/N=C/c2ccc(N(c3ccccc3)c3ccccc3)cc2)CC1 | 5110 nM (active)

---

# TARGET_OF_ASSAY: Induced myeloid leukemia cell differentiation protein Mcl-1 (Homo sapiens)
# Sequence (Q07820 whole entry): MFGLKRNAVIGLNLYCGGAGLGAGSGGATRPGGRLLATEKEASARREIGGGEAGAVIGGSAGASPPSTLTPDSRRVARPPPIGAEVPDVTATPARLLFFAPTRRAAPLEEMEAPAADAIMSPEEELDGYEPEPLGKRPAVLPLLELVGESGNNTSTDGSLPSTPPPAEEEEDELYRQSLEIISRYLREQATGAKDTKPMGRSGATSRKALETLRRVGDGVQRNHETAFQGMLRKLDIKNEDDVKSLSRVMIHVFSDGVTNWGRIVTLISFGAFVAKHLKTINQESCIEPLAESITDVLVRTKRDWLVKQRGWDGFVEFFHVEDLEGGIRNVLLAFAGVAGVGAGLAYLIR
# Type: functional
Active and inactive are the calls of the source.
IC50 values by entry

COMPOUND | IC50
CCN(CC)S(=O)(=O)c1cc(NC(=O)Cn2ncc(Cl)c(Cl)c2=O)ccc1C | 4.21 µM (active)
COc1ccc2nc(Nc3sc4c(c3C(N)=O)CCCC4)sc2c1 | 8.79 µM (active)
Cc1ccc(-c2cc(C(=O)OCC(=O)N(C)C3CCS(=O)(=O)C3)c3ccccc3n2)o1 (stereo not drawn) | 5.12 µM (active)
CCC1CCCCN1S(=O)(=O)c1ccc(S(=O)(=O)N(Cc2ccccn2)CC2CCCO2)cc1 (stereo not drawn) | < 0.4 µM (not active)
CCN(CC)c1ccc(NC(=O)Nc2cccc(C(C)=O)c2)cc1 | 3.13 µM (not active)
CC(=O)Nc1ccc(C(=O)Nc2cccc(-c3cnc4ccccc4n3)c2)cc1 | 25.5 µM (not active)
C=CCSC1=N/C(=C\C=C\c2ccco2)C(=O)S1 | 5.61 µM (active)
COC(=O)c1cc(-c2ccc(C)o2)nc2ccccc12 | 18 µM (active)
